tgt: Amine oxidase [flavin-containing] B (Rattus norvegicus)
Sequence (P19643 whole entry): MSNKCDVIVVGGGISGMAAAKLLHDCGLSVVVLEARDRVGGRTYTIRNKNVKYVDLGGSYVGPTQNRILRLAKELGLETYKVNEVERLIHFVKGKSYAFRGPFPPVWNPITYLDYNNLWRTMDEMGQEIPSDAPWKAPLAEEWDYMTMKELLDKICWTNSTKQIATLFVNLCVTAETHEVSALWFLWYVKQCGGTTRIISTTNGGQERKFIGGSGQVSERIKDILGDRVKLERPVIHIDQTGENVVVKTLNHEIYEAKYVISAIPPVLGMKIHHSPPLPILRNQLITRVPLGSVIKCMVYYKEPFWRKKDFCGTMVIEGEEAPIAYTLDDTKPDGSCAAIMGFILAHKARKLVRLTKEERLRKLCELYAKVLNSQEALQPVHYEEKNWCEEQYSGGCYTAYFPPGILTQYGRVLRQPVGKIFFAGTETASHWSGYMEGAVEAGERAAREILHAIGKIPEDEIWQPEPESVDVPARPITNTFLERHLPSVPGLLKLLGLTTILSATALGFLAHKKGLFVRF
measured-endpoint: IC50 (µM)
Give just the numeric value; µM need not be written.

Please give the measured IC50 for this molecule: C#CCN[C@@H]1CCc2ccc(OC(=O)N(C)CC)cc21 120

###

As shown below, each of these compounds has a reported pKi value.
tgt: Amine oxidase [flavin-containing] A (Homo sapiens)
Sequence (P21397 whole entry): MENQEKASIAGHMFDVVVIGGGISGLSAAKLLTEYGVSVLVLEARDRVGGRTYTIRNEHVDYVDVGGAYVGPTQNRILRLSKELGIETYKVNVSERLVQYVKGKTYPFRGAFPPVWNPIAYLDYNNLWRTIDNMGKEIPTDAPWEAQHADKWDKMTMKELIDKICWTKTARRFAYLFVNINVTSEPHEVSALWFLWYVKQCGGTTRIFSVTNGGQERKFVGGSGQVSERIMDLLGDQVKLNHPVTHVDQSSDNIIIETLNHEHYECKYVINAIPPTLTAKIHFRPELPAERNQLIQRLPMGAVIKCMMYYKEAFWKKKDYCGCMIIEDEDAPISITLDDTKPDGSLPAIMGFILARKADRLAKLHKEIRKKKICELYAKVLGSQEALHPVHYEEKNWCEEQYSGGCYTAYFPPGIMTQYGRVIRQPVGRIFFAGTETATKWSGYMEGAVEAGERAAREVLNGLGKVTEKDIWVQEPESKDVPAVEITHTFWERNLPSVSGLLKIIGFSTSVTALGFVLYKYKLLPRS
measurement-protocol: Binding affinity towards monoamine oxidase A activity was measured using a kynuramine assay
Friendly reminder that pKi comes from taking -log10 of the concentration in mol/L.

| smiles | pKi |
| --- | --- |
| C#CCN[C@@H]1CCc2ccc(OC(=O)N(C)CC)cc21 | 3.64 |

Now let's try a different one.
Please give the measured pKi for this compound: C#CCN[C@@H]1CCc2ccc(O)cc21 5.72

###

tgt: Amine oxidase [flavin-containing] B (Homo sapiens, UniProt P27338)
Sequence (P27338 whole entry): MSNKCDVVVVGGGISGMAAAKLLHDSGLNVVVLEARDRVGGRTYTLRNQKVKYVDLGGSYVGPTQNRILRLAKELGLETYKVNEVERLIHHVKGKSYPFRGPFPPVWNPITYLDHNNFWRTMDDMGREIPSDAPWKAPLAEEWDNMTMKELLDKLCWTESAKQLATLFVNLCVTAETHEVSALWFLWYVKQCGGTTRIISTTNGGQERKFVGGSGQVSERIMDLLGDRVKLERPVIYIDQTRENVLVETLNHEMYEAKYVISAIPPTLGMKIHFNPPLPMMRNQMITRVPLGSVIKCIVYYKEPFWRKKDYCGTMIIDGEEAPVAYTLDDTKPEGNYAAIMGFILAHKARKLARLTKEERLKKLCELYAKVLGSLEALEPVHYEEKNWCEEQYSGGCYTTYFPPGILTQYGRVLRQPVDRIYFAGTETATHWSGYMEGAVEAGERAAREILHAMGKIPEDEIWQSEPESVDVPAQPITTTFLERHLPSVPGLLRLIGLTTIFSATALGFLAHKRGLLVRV
As shown below, each of these compounds has a reported pKi value.
Friendly reminder that pKi comes from taking -log10 of the concentration in mol/L.

| smiles | tgt | pKi |
| --- | --- | --- |
| C#CCN[C@@H]1CCc2ccc(O)cc21 | Amine oxidase [flavin-containing] B (Homo sapiens, UniProt P27338) | 4.77 |

Now let's try a different one.
Please give the measured pKi for this compound: C#CCN[C@@H]1CCc2ccc(OC(=O)N(C)CC)cc21 3.67
